Task for the reader: assign each of the following compounds its reported IC50.
- TARGET_OR_TEST_SYSTEM: SARS-CoV-2 3CL protease (Severe acute respiratory syndrome coronavirus 2)
- PROTOCOL_NOTES: Inhibitory activity test against SARS-CoV-2 3CL proteases
- Assay type: biochemical
- SETUP_CONDITIONS: read-out: IC50 (50% SARS-CoV-2 3CL protease inhibitory concentration)

Sample records with IC50:
TEST_SMILES | IC50
COc1cc(N2CCCC2)cc2c1c(=O)n(Cc1ncn(C)n1)c(=O)n2Cc1cc(Cl)ccc1Cl | < 100 nM
CCOc1nc2cc(-c3cc(OC)c4c(=O)n(Cc5ncn(C)n5)c(=O)n(Cc5cc(F)c(F)c(F)c5)c4c3)c(Cl)cc2[nH]1 | < 100 nM
COc1nc2c(=O)n(Cc3ncn(C)n3)c(=O)n(Cc3cc(F)c(F)c(Cl)c3)c2cc1-c1nc(C(=O)NC2(C)COC2)ccc1Cl | < 100 nM
COc1cc(-c2cnc(N)cc2Cl)cc2c1c(=O)n(Cc1ncn(C)n1)c(=O)n2Cc1cc(F)c(F)c(F)c1 | < 100 nM
COc1ccc(Cl)c(-c2cc(OC)c3c(=O)n(Cc4ncn(C)n4)c(=O)n(Cc4cc(F)c(F)c(F)c4)c3c2)c1 | 32 nM

Hey, can you go through the list below and give me IC50 for every item?
1. Cn1cnc(Cn2c(=O)c3c4c(c(N5CCC(F)(F)CC5)cc3n(Cc3cc(F)c(F)c(F)c3)c2=O)CCO4)n1
2. Cn1cnc(Cn2c(=O)c3c4c(c(-c5cc(C#N)ccc5Cl)cc3n(Cc3cc(F)c(F)c(F)c3)c2=O)CCO4)n1
3. COc1cc(-c2cc3cn[nH]c3cc2Cl)cc2c1c(=O)n(Cc1ncn(C)n1)c(=O)n2Cc1cc(Cl)c(F)cc1F
4. COc1nc(N2CC[C@@H](O)C2)cc2c1c(=O)n(-c1cncc(Cl)c1)c(=O)n2-c1ccc(F)c(Cl)c1
5. COc1nc(N2CC[C@@H](OC(F)F)C2)cc2c1c(=O)n(-c1cnc3cc(F)ccn13)c(=O)n2-c1ccc(F)c(Cl)c1
6. COc1nc2c(=O)n(-c3cnc4cc(F)ccn34)c(=O)n(Cc3cc(Cl)c(F)cc3C)c2cc1-c1cc(C(C)(C)O)ccc1Cl
7. COc1nc(N2CC[C@@H](C#N)C2)cc2c1c(=O)n(-c1cnc3cc(F)ccn13)c(=O)n2-c1ccc(F)c(Cl)c1

result:
1. < 100 nM
2. 1.5 nM
3. < 100 nM
4. < 100 nM
5. < 100 nM
6. 7.4 nM
7. 1.4 nM

---

- TARGET_OR_TEST_SYSTEM: SARS-CoV-2 3CL protease (Severe acute respiratory syndrome coronavirus 2, UniProt P0DTD1)
- PROTOCOL_NOTES: Inhibitory activity test against SARS-CoV-2 3CL proteases
- Format: biochemical
- SETUP_CONDITIONS: read-out: IC50 (50% SARS-CoV-2 3CL protease inhibitory concentration)
Task for the reader: assign each of the following compounds its reported pIC50.
One number for each entry, as −log10 of the molar value.

Sample records with pIC50:
COMPOUND | pIC50
Cn1cnc(Cn2c(=O)c3c(F)cc(-c4nc5c(cc4Cl)NC(=O)C5)cc3n(Cc3cc(F)c(F)c(F)c3)c2=O)n1 [Compound I-0009] | 7.68
COc1cc(-c2cc(-c3cnn(C)c3)ccc2Cl)cc2c1c(=O)n(-c1cncc(C)c1)c(=O)n2Cc1ccc(F)c(C#N)c1 [Compound I-0074] | 7.92

Hey, can you go through the list below and give me pIC50 for every item?
1. COc1nc2cc(-c3cc(OC)c4c(=O)n(Cc5ncn(C)n5)c(=O)n(Cc5cc(F)c(F)c(Cl)c5)c4c3)c(Cl)cc2[nH]1 [Compound I-0858]
2. NC(=O)c1ccc(Cl)c(-c2nc3c(cc2F)c(=O)n(Cc2ccc[nH]c2=O)c(=O)n3Cc2cc(F)c(F)c(F)c2)c1 [Compound I-0301]
3. COc1nc(N(C)C)cc2c1c(=O)n(-c1cnc3cc(F)ccn13)c(=O)n2-c1ccc(F)c(Cl)c1 [Compound I-0986]

result:
8.62
7.01
8.19

---

- TARGET_OR_TEST_SYSTEM: SARS-CoV-2 3CL protease (Severe acute respiratory syndrome coronavirus 2)
- PROTOCOL_NOTES: Inhibitory activity test against SARS-CoV-2 3CL proteases
- Assay type: biochemical
- SETUP_CONDITIONS: read-out: IC50 (50% SARS-CoV-2 3CL protease inhibitory concentration)
MEASURE_NAME: IC50

Sample records with IC50:
COMPOUND | MEASURE_NAME | VALUE_MEASURED
COc1nc(N2CCC(F)(F)C2)cc2c1c(=O)n(-c1cnc3cc(F)ccn13)c(=O)n2-c1ccc(F)c(Cl)c1 [Compound I-0728] | IC50 | 5.1 nM
COc1cc(-c2ncc(F)cc2Cl)cc2c1c(=O)n(Cc1ncn(C)n1)c(=O)n2Cc1cc(F)c(F)c(F)c1 [Compound I-0827] | IC50 | < 100 nM
COc1cc(-c2cc(-c3ncc[nH]3)ccc2Cl)cc2c1c(=O)n(Cc1ncn(C)n1)c(=O)n2Cc1cc(F)c(F)c(F)c1 [Compound I-0123] | IC50 | < 100 nM
COc1cc(-c2cc(CC(N)=O)ccc2Cl)cc2c1c(=O)n(-c1cncc(Cl)c1)c(=O)n2Cc1cc(F)c(F)c(F)c1 [Compound I-0206] | IC50 | < 100 nM
Cn1cnc(Cn2c(=O)c3c(=O)n(C)c(-c4cc(C#N)ccc4Cl)cc3n(Cc3cc(F)c(F)c(F)c3)c2=O)n1 [Compound I-0169] | IC50 | 2.7 nM

Hey, can you go through the list below and give me IC50 for every item?
1. COc1cc(-c2cc(C(C)(C)O)ccc2Cl)cc2c1c(=O)n(-c1cncc(C)c1)c(=O)n2Cc1cc(F)c(F)c(F)c1 [Compound I-0069]
2. COc1cc(-c2cc3c(cc2Cl)NC(=O)C3)cc2c1c(=O)n(Cc1ncn(C)n1)c(=O)n2Cc1cc(F)c(F)c(Cl)c1 [Compound I-0263]
3. COc1nc2c(=O)n(Cc3ncn(C)n3)c(=O)n(Cc3cc(Cl)c(F)cc3C)c2cc1-c1nc(C)ccc1Cl [Compound I-0581]
4. COc1nc(-c2c(Cl)ccc3c2CCN(C)C3=O)cc2c1c(=O)n(Cc1ncn(C)n1)c(=O)n2Cc1cc(F)c(F)c(Cl)c1 [Compound I-0874]
5. COc1nc(N2CC[C@@H](O)C2)cc2c1c(=O)n(-c1cnc3cc(F)ccn13)c(=O)n2Cc1cc(F)c(F)c(F)c1 [Compound I-0730]

result:
1. 6 nM
2. 0.99 nM
3. < 100 nM
4. 9.4 nM
5. < 100 nM

---

- TARGET_OR_TEST_SYSTEM: SARS-CoV-2 3CL protease (Severe acute respiratory syndrome coronavirus 2)
- PROTOCOL_NOTES: Inhibitory activity test against SARS-CoV-2 3CL proteases
- Type: biochemical
- SETUP_CONDITIONS: read-out: IC50 (50% SARS-CoV-2 3CL protease inhibitory concentration)
pIC50: −log10 of the molar value.
Task for the reader: assign each of the following compounds its reported pIC50.

COMPOUND | TARGET_OR_TEST_SYSTEM | pIC50
COc1cc(-c2cc(C#N)ccc2Cl)cc2c1c(=O)n(-c1cnc3ccccn13)c(=O)n2Cc1cc(F)c(F)c(F)c1 [Compound I-0661] | SARS-CoV-2 3CL protease (Severe acute respiratory syndrome coronavirus 2) | > 7.00

Hey, can you go through the list below and give me pIC50 for every item?
1. COc1nc(N2CC[C@@H](O)C2)cc2c1c(=O)n(-c1cnc3cc(F)c(Cl)cn13)c(=O)n2-c1ccc(F)c(Cl)c1 [Compound I-0952]
2. [2H]C([2H])([2H])O[C@@H]1CCN(c2cc3c(c(OC)n2)c(=O)n(-c2cnc4cc(F)ccn24)c(=O)n3-c2cc(F)c(F)c(Cl)c2)C1 [Compound I-0942]
3. Cn1cnc(Cn2c(=O)c3c(Cl)cc(-c4cc5cn[nH]c5cc4Cl)cc3n(Cc3cc(F)c(F)c(F)c3)c2=O)n1 [Compound I-0015]
4. COc1ccc(Cl)c(-c2cc3c(nc2OC)c(=O)n(Cc2ncn(C)n2)c(=O)n3Cc2cc(Cl)c(F)cc2C)n1 [Compound I-0821]

result:
1: > 7.00; 2: > 7.00; 3: > 7.00; 4: 8.00

---

- System: SARS-CoV-2
- PROTOCOL_NOTES: Inhibitory activity of cytopathic effect (CPE) in HEK293T/ACE2-TMPRSS2 cells
- Assay type: cell-based
- SETUP_CONDITIONS: Severe acute respiratory syndrome coronavirus 2, HEK-293T, 72 h; 50% SARS-CoV-2 infected cell death inhibitory concentration; HEK293T/ACE2-TMPRSS2 cells; CellTiter-Glo 2.0 after 3 days culture; read-out: EC50
MEASURE_NAME: pEC50
Numbers only, as −log10 of the molar value.

Sample records with pEC50:
TEST_SMILES | VALUE_MEASURED
COc1ccc(Cl)c(-c2cc3c(nc2OC)c(=O)n(Cc2ncn(C)n2)c(=O)n3Cc2cc(Cl)c(F)cc2C)n1 | 7.42
CCC(=O)c1ccc(Cl)c(-c2cc(OC)c3c(=O)n(Cc4ncn(C)n4)c(=O)n(Cc4cc(F)c(F)c(F)c4)c3c2)c1 | 7.12
COc1nc(N2CC[C@@H](C#N)C2)cc2c1c(=O)n(-c1cnc3cc(F)ccn13)c(=O)n2-c1ccc(F)c(Cl)c1 | 8.13
COc1cc(-c2cc(P(C)(C)=O)ccc2Cl)cc2c1c(=O)n(Cc1ncn(C)n1)c(=O)n2Cc1cc(F)c(F)c(F)c1 | 5.63
Cn1cnc(Cn2c(=O)c3c(cc(-c4cc(C#N)ccc4Cl)n4ccnc34)n(Cc3cc(F)c(F)c(F)c3)c2=O)n1 | 6.19
COCCN(C)c1cc2c(c(OC)n1)c(=O)n(-c1cnc3cc(F)ccn13)c(=O)n2-c1ccc(F)c(Cl)c1 | 7.94
COc1nc2c(=O)n(Cc3ncn(C)n3)c(=O)n(Cc3cc(F)c(F)c(Cl)c3)c2cc1-c1nc(C(C)(C)O)ccc1Cl | 7.75
COc1nc(NC(C)C)cc2c1c(=O)n(-c1cnc3cc(F)ccn13)c(=O)n2-c1ccc(F)c(Cl)c1 | 7.89

Hey, can you go through the list below and give me pEC50 for every item?
1. COc1nc(-c2cc(C#N)ccc2Cl)cc2c1c(=O)n(-c1cnc3ccccn13)c(=O)n2Cc1ccc(F)c(C#N)c1
2. CCNc1cc2c(c(OC)n1)c(=O)n(-c1cncc(Cl)c1)c(=O)n2-c1ccc(F)c(Cl)c1

result:
7.05
8.05
